The reported numbers originate from patent US20250289789A1.

- test-target: CDK4-NanoLuc fusion with CCND1 in 293T or 293 cells (Homo sapiens)
- Construct: host or cells: 293T (ATCC CRL-3216) or 293 (ATCC CRL-1573)
- Sequence (P11802 whole entry, the tested form may be a part): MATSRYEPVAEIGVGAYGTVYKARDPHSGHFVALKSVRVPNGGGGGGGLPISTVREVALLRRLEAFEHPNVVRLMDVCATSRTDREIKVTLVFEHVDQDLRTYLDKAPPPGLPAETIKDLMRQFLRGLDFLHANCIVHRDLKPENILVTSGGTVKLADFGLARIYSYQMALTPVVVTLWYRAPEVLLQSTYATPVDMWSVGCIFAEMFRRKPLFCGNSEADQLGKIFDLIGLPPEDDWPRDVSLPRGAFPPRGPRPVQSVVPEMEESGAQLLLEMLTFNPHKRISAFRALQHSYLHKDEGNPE
- Sequence (P24385 whole entry partner, the tested form may be a part): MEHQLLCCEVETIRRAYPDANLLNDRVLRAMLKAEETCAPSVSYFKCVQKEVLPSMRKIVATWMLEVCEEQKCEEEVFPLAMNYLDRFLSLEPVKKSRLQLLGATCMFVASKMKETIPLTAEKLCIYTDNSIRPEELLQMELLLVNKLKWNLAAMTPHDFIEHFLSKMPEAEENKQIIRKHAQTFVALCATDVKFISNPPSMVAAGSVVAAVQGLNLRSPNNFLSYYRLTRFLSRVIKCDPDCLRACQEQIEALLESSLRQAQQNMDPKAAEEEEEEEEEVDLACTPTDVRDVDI
- procedure-text: NanoBRET Target Engagement (TE) Intracellular Kinase Assay, CDK4/CCND1
- Assay type: cell-based
- condition-info: NanoBRET TE intracellular kinase assay, 2-hour incubation, read-out: NanoBRET-CDK4/D1 IC50
IC50 values, listed per item
readout-kind: IC50

- compound: "COc1cc(O)c(C=O)c2c1CC(C(=O)Nc1cc([C@H]3C[C@@H](OC(=O)N(C)N(C)C)C3)n[nH]1)C2 (single isomer, unassigned) [Compound 270]"
  readout-kind: "IC50"
  recorded-measurement: "> 10 µM"
- compound: "COCc1cc(O)c(C=O)c(-c2cc(C(=O)Nc3cc([C@H]4CC[C@@H](OC(=O)NC(C)C)C4)[nH]n3)n(C)n2)c1"
  readout-kind: "IC50"
  recorded-measurement: "4.11 µM"
- compound: "COc1cc(O)c(C=O)c(OCC(=O)Nc2cc([C@H]3CC[C@@H](OC(=O)N(C)N(C)C)C3)[nH]n2)c1"
  readout-kind: "IC50"
  recorded-measurement: "> 10 µM"
